Conditions: in methanol, 283.15 K
measured endpoint: solubility (mole fraction)

>>> value_measured("N#Cc1ccc([N+](=O)[O-])cc1")
0.0037

====

Conditions: in ethanol, 278.15 K
measured endpoint: solubility (mole fraction)

>>> value_measured("N#Cc1ccc([N+](=O)[O-])cc1")
0.00255

====

Conditions: in isopropanol, 303.15 K
measured endpoint: solubility (mole fraction)

>>> value_measured("N#Cc1ccc([N+](=O)[O-])cc1")
0.0046

====

Conditions: in methanol, 308.15 K
measured endpoint: solubility (mole fraction)

>>> value_measured("N#Cc1ccc([N+](=O)[O-])cc1")
0.00955

====

Details: in n-propanol, 313.15 K
measured endpoint: solubility (mole fraction)

>>> value_measured("N#Cc1ccc([N+](=O)[O-])cc1")
0.00908

====

Details: in isopropanol, 293.15 K
measured endpoint: solubility (mole fraction)

>>> value_measured("N#Cc1ccc([N+](=O)[O-])cc1")
0.00304

====

Conditions: in ethanol, 313.15 K
measured endpoint: solubility (mole fraction)

>>> value_measured("N#Cc1ccc([N+](=O)[O-])cc1")
0.00984

====

Conditions: in ethyl acetate, 303.15 K
measured endpoint: solubility (mole fraction)

>>> value_measured("N#Cc1ccc([N+](=O)[O-])cc1")
0.0842

====

Conditions: in ethanol, 318.15 K
measured endpoint: solubility (mole fraction)

>>> value_measured("N#Cc1ccc([N+](=O)[O-])cc1")
0.0116

====

Settings: in methanol, 288.15 K
measured endpoint: solubility (mole fraction)

>>> value_measured("N#Cc1ccc([N+](=O)[O-])cc1")
0.00448

====

Conditions: in isopropanol, 298.15 K
measured endpoint: solubility (mole fraction)

>>> value_measured("N#Cc1ccc([N+](=O)[O-])cc1")
0.00374

====

Conditions: in ethanol, 308.15 K
measured endpoint: solubility (mole fraction)

>>> value_measured("N#Cc1ccc([N+](=O)[O-])cc1")
0.00821

====

Conditions: in n-propanol, 293.15 K
measured endpoint: solubility (mole fraction)

>>> value_measured("N#Cc1ccc([N+](=O)[O-])cc1")
0.00407

====

Conditions: in ethyl acetate, 288.15 K
measured endpoint: solubility (mole fraction)

>>> value_measured("N#Cc1ccc([N+](=O)[O-])cc1")
0.0538

====

Conditions: in ethanol, 303.15 K
measured endpoint: solubility (mole fraction)

>>> value_measured("N#Cc1ccc([N+](=O)[O-])cc1")
0.00672

====

Settings: in n-propanol, 283.15 K
measured endpoint: solubility (mole fraction)

>>> value_measured("N#Cc1ccc([N+](=O)[O-])cc1")
0.00271

====

Conditions: in n-propanol, 308.15 K
measured endpoint: solubility (mole fraction)

>>> value_measured("N#Cc1ccc([N+](=O)[O-])cc1")
0.00758

====

Conditions: in ethanol, 293.15 K
measured endpoint: solubility (mole fraction)

>>> value_measured("N#Cc1ccc([N+](=O)[O-])cc1")
0.00454

====

Details: in n-propanol, 278.15 K
measured endpoint: solubility (mole fraction)

>>> value_measured("N#Cc1ccc([N+](=O)[O-])cc1")
0.00227

====

Conditions: in n-propanol, 318.15 K
measured endpoint: solubility (mole fraction)

>>> value_measured("N#Cc1ccc([N+](=O)[O-])cc1")
0.0108

====

Conditions: in isopropanol, 283.15 K
measured endpoint: solubility (mole fraction)

>>> value_measured("N#Cc1ccc([N+](=O)[O-])cc1")
0.00196

====

Conditions: in isopropanol, 308.15 K
measured endpoint: solubility (mole fraction)

>>> value_measured("N#Cc1ccc([N+](=O)[O-])cc1")
0.00572

====

Conditions: in ethyl acetate, 278.15 K
measured endpoint: solubility (mole fraction)

>>> value_measured("N#Cc1ccc([N+](=O)[O-])cc1")
0.0404

====

Conditions: in isopropanol, 288.15 K
measured endpoint: solubility (mole fraction)

>>> value_measured("N#Cc1ccc([N+](=O)[O-])cc1")
0.00246

====

Settings: in methanol, 318.15 K
measured endpoint: solubility (mole fraction)

>>> value_measured("N#Cc1ccc([N+](=O)[O-])cc1")
0.0135

====

Conditions: in ethanol, 283.15 K
measured endpoint: solubility (mole fraction)

>>> value_measured("N#Cc1ccc([N+](=O)[O-])cc1")
0.00302

====

Conditions: in ethanol, 288.15 K
measured endpoint: solubility (mole fraction)

>>> value_measured("N#Cc1ccc([N+](=O)[O-])cc1")
0.00376

====

Settings: in isopropanol, 313.15 K
measured endpoint: solubility (mole fraction)

>>> value_measured("N#Cc1ccc([N+](=O)[O-])cc1")
0.00708

====

Details: in methanol, 278.15 K
measured endpoint: solubility (mole fraction)

>>> value_measured("N#Cc1ccc([N+](=O)[O-])cc1")
0.0032

====

Details: in isopropanol, 318.15 K
measured endpoint: solubility (mole fraction)

>>> value_measured("N#Cc1ccc([N+](=O)[O-])cc1")
0.00877

====

Details: in ethyl acetate, 283.15 K
measured endpoint: solubility (mole fraction)

>>> value_measured("N#Cc1ccc([N+](=O)[O-])cc1")
0.0463

====

Settings: in methanol, 298.15 K
measured endpoint: solubility (mole fraction)

>>> value_measured("N#Cc1ccc([N+](=O)[O-])cc1")
0.00652

====

Conditions: in n-propanol, 303.15 K
measured endpoint: solubility (mole fraction)

>>> value_measured("N#Cc1ccc([N+](=O)[O-])cc1")
0.00619
